# Test system: UISO
# assay protocol: qHTS assay to identify novel small-molecules to repurpose for Merkel cell carcinoma treatment (AID 1296009); further: nearly all actives have a fitted effect of over 60% in size
# condition description: MCC and control cell lines, CellTiter-Glo viability, 72 h; series mostly up to 46 µM
# Description: MCC is a rare and aggressive neuroendocrine skin cancer with limited treatment options. Approximately 80% of MCCs have the Merkel cell polyomavirus (MCPyV) DNA integrated into the host genome (virus-positive: VP-MCC) and viral oncogenes drive oncogenesis. The remaining MCCs are virus-negative (VN-MCC) and are caused by UV mutagenesis. […] Using cell viability as a readout (CellTiter-Glo assay) we found both overlapping and distinct drugs that can be repurposed for the treatment of VP-MCC and VN-MCC. […]
Inconclusive results are not listed. Calls of active or inactive are those of the source. The call rests on the fitted dose curve; in most records, active means well fitted inhibition curve with a large enough effect; inconclusive means small, poorly fitted or top-dose-only effect; inactive means flat fitted curve, though single readings scatter.
Can you answer with just one of these options? active, inactive

Record excerpt, results attached:
[
  {
    "compound": "COc1cc([C@@H]2c3cc4c(cc3[C@@H](O)C3COC(=O)C32)OCO4)cc(OC)c1O (stereo not given in full)",
    "label": "active"
  },
  {
    "compound": "O=C1C=CC[C@@H]2[C@H]3CCCN4CCC[C@@H](CN12)[C@@H]34",
    "label": "inactive"
  },
  {
    "compound": "S=C(SSC(=S)N1CCCCC1)N1CCCCC1",
    "label": "active"
  }
]

// param item: `Nc1ccc(Cl)cc1` ; yields the recorded call
inactive

Given `CC[C@@]1(O)C(=O)OCc2c1cc1n(c2=O)Cc2cc3ccccc3nc2-1` , state the outcome it received in this test.
active

---

# Test system: HeLa
# assay protocol: Primary qHTS to identify gynecologic anti-cancer compounds using libraries of approved drugs and bioactive compounds (AID 1345084); further: nearly all actives have a fitted effect of over 55% in size
# condition description: Gynecologic cancer cell panel viability, ATPlite luminescence, 48 h; series mostly up to 57.5 µM
Inconclusive results are not listed. Active and inactive are the calls of the source. Calls come from the whole dose curve; as a rule, active = well fitted cell-killing curve with a large enough effect; inconclusive = small, poorly fitted or top-dose-only effect, or effect the other way; inactive = flat fitted curve, though single readings scatter.
Lab note: assign the record to one of active, inactive

[
  {
    "molecule": "COCCOCCO",
    "test target": "HeLa",
    "label": "inactive"
  }
]

// return assay outcome for CC(C)(C)C(O)C(Oc1ccc(Cl)cc1)n1cncn1 (stereo not given)
inactive

Hey, what did the test say about `C/C=C(/C)C(=O)O[C@H]1C(C)=C2[C@H]([C@@H]1OC(=O)CCCCCCC)[C@@](C)(OC(C)=O)C[C@H](OC(=O)CCC)[C@@]1(O)[C@H]2OC(=O)[C@@]1(C)O` ?
active

Field: outcome | Entry: `CC[N+]1(CCOC(=O)C(O)(c2ccccc2)c2ccccc2)CCCCC1`
inactive

Test call for this molecule, please: `O=C(Nc1ccccc1-c1ccc(Cl)cc1)c1cccnc1Cl`
inactive

How was `CCOC(=O)Nc1ccc(NCc2ccc(F)cc2)cc1N` classified in this test?
inactive

---

# test target: 3',5'-cyclic-AMP phosphodiesterase 4B (Homo sapiens) (UniProt Q07343)
# Sequence (Q07343 whole entry, looked up): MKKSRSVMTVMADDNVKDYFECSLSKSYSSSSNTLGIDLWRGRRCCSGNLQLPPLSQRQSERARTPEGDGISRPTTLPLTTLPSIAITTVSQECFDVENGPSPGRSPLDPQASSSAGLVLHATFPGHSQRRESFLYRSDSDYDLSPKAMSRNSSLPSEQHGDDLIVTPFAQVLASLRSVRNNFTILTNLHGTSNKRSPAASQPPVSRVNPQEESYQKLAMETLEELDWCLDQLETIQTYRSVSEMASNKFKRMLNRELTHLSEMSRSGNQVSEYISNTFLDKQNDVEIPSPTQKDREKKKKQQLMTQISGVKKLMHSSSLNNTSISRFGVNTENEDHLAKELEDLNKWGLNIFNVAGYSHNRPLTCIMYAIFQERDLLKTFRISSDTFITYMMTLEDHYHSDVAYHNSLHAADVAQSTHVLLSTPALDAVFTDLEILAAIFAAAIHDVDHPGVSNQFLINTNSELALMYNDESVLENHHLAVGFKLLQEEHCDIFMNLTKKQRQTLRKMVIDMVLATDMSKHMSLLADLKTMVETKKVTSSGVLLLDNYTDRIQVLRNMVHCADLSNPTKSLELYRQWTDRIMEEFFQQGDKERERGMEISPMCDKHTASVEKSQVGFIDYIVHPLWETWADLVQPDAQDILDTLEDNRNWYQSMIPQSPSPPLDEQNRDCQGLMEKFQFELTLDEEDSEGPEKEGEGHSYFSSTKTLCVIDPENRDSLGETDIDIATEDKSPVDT
# assay protocol: qHTS Assay for Inhibitors of PDE-IV (AID 607)
# condition description: HEK293 ACTOne CNG channel cells, membrane potential fluorescence; series mostly up to 22.9 µM
Records with an inconclusive call do not appear. Activity calls are given as the source filed them. Calls come from the whole dose curve; as a rule, active = well fitted activation curve with a large enough effect in the main read-out, with a control signal flat (not every such curve was filed as active); inconclusive = small, poorly fitted or top-dose-only effect, or effect the other way, or a change in a side signal; inactive = flat fitted curve, though single readings scatter.
The categories you may choose from are 1 for active, -1 for inactive

// below: answered molecules
[
  {
    "smiles notation": "CN[C@@H]1C[C@@H](c2ccc(Cl)c(Cl)c2)c2ccccc21",
    "label": -1
  },
  {
    "smiles notation": "C[C@@H]1O[C@H](C[N+](C)(C)C)C[C@H]1O",
    "label": 1
  },
  {
    "smiles notation": "c1ccc2sc(C3(N4CCCCC4)CCCCC3)cc2c1",
    "label": -1
  },
  {
    "smiles notation": "CC1=NN=C(c2ccc(N)cc2)c2cc3c(cc2C1)OCO3",
    "label": -1
  },
  {
    "smiles notation": "O=C(O)Cc1cnc[nH]1",
    "label": -1
  },
  {
    "smiles notation": "CCCCc1ccc(C(=O)O)nc1",
    "label": -1
  },
  {
    "smiles notation": "CCOC(=O)c1cncn1[C@H](C)c1ccccc1",
    "label": -1
  },
  {
    "smiles notation": "CNCCc1c[nH]c2ccc(O)cc12",
    "label": -1
  }
]

As a next step, examine the molecule that follows.
What did the test return for `O=c1cccc2n1CC1CNC[C@H]2C1` ?
-1

---

Exercise: for every item that follows, state its recorded activity, negative = inhibition.
# assay protocol: qHTS profiling for inhibitors of Plasmodium falciparum proliferation (AID 504749);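 further: 0% = DMSO vehicle and full inhibition = artemisinin control; nearly all actives have a fitted effect of over 60% in size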
# condition description: P. falciparum in erythrocytes, SYBR Green DNA, 72 h; at 28.7 µM (top of the series); parasite line A
Inconclusive results are not listed.
Answers are plain numbers, in %.

Consider the reported activity, negative = inhibition for these compounds:
[
  {
    "compound": "O=C(O)C(Cl)Cl",
    "activity, negative = inhibition / %": 7.93
  },
  {
    "compound": "NC(=O)CN1CC(O)CC1=O (stereo not given)",
    "activity, negative = inhibition / %": 3.26
  },
  {
    "compound": "O=C(O)COc1ccccc1",
    "activity, negative = inhibition / %": -0.911
  }
]

Field: activity, negative = inhibition. Fill in for each record below.
1. CCCCc1ccc(C(=O)O)nc1
2. C#CC1(O)CCC2C3CCC4=CC(=O)CCC4(C)C3CCC21C (stereo not given)
3. CN1C2CCC1CC(OC(=O)c1cc(Cl)cc(Cl)c1)C2 (stereo not given)
4. Cc1ccc(Cl)c(O)c1
5. CCCN1CCC[C@H](c2cccc(O)c2)C1
6. CC[N+]1(CCOC(=O)C(O)(c2ccccc2)c2ccccc2)CCCCC1

[0.211, 7.72, -1.17, 9.64, 8.52, -23.7]

Quick check: activity, negative = inhibition of CCCCCCCCCC(CC)c1ccc(S(=O)(=O)O)cc1 (stereo not given) ?
4.98

---

# assay protocol: qHTS Screen of the MIPE 4.0 Collection Against Ewings Sarcoma (TC32) (AID 1259256); further: nearly all actives have a fitted effect of over 45% in size
# condition description: TC32 Ewing sarcoma viability, CellTiter-Glo, 48 h; series mostly up to 45.8 µM
Results filed as inconclusive are left out. Active and inactive are the calls of the source. The call rests on the fitted dose curve; in most records, active means well fitted inhibition curve with a large enough effect; inconclusive means small, poorly fitted or top-dose-only effect; inactive means no such curve, though single readings can be large or run the other way.
I would appreciate it if you answered using one of these outcomes: active, inactive

What is the recorded call for this compound in the test? CCOP(=O)(OCC)C(C)NC(=O)N(CCCl)N=O (stereo not drawn)
inactive

Lab log entry: `COc1ccc(N(C(=O)Oc2c(C)cccc2C)c2ccnc(Nc3ccc(N4CCN(C)CC4)cc3)n2)c(OC)c1` — outcome as called in the assay?
active

Name the outcome recorded for COc1ccc(CC2NCCc3cc(OC)c(OC)cc32)cc1OC (stereo not drawn) in the assay.
inactive

---

# test target: Muscarinic acetylcholine receptor M1 (Rattus norvegicus)
# assay protocol: qHTS Assay for Antagonists of Acetylcholine Muscarinic M1 Receptor: Kinetic Measurement of Intracellular Calcium Response (AID 943); further: nearly all actives have a fitted effect of over 75% in size
# condition description: M1-expressing cells, kinetic intracellular calcium fluorescence; series mostly up to 35.3 µM
Inconclusive results are not listed. The source made the active and inactive calls. The call rests on the fitted dose curve; in most records, active means well fitted inhibition curve with a large enough effect; inconclusive means small, poorly fitted or top-dose-only effect; inactive means no such curve, though single readings can be large or run the other way.
Outcome (select one): active, inactive

As a guide, the following entries are already answered.
[
  {
    "molecule": "O=C1CCCN1CC#CCN1CCCC1",
    "test target": "Muscarinic acetylcholine receptor M1 (Rattus norvegicus)",
    "label": "inactive"
  },
  {
    "molecule": "CNCCc1ccc(O)c(O)c1",
    "test target": "Muscarinic acetylcholine receptor M1 (Rattus norvegicus)",
    "label": "inactive"
  },
  {
    "molecule": "c1ccc(CCCN2CCN(CCOC(c3ccccc3)c3ccccc3)CC2)cc1",
    "test target": "Muscarinic acetylcholine receptor M1 (Rattus norvegicus)",
    "label": "active"
  },
  {
    "molecule": "CNCCc1c[nH]c2ccc(O)cc12",
    "test target": "Muscarinic acetylcholine receptor M1 (Rattus norvegicus)",
    "label": "inactive"
  },
  {
    "molecule": "NC(N)=NOCCC(N)C(=O)O (centres undefined)",
    "test target": "Muscarinic acetylcholine receptor M1 (Rattus norvegicus)",
    "label": "inactive"
  },
  {
    "molecule": "C[C@@H]1O[C@H](C[N+](C)(C)C)C[C@H]1O",
    "test target": "Muscarinic acetylcholine receptor M1 (Rattus norvegicus)",
    "label": "inactive"
  },
  {
    "molecule": "C#CCOC(=O)C1=CCCN(C)C1",
    "test target": "Muscarinic acetylcholine receptor M1 (Rattus norvegicus)",
    "label": "inactive"
  },
  {
    "molecule": "NC(=NCCC[C@H](N)C(=O)O)N[N+](=O)[O-]",
    "test target": "Muscarinic acetylcholine receptor M1 (Rattus norvegicus)",
    "label": "inactive"
  }
]

We next turn to a different molecule, shown below.
Hi team, can someone confirm the assay call for `NCCc1c[nH]c2ccccc12` ?
inactive
